Attribution: ChEMBL document CHEMBL2346657

# System: Pseudomonas aeruginosa
# assay.procedure: Antimicrobial activity against Pseudomonas aeruginosa MTCC 1688 at 750 ug/ml after 24 hrs by cup plate method
# Type: functional
# condition.label: MTCC 1688, 24 h, read-out: IZ
Rule: 1 for zone of inhibition at 750 µg/mL not less than 7 mm, 0 for anything less.

Enquiry: Does the reported zone of inhibition at 750 µg/mL for Cc1ccc(C2=CC(c3c(-c4ccccc4)[nH]c4ccc(C)cc34)c3c(nc4oc(=O)c(C#N)c(N)c4c3N)O2)cc1 (stereo not drawn) fall at or above the 7 mm mark?
Return: 0

Enquiry: Tell me whether zone of inhibition at 750 µg/mL is at least 7 mm here: Cc1ccc2[nH]c(-c3ccccc3)c(C3C=C(c4ccc(Cl)cc4)Oc4[nH]nc(N)c43)c2c1 (stereo not drawn)
Return: 0

Enquiry: Exam item: decide whether the reported zone of inhibition at 750 µg/mL for Cc1ccc(C2=CC(c3c(-c4ccccc4)[nH]c4ccccc34)c3c(N)nc(=S)[nH]c3O2)cc1 (stereo not drawn) is at least 7 mm.
Return: 0
